System: Enterococcus faecalis
PROCEDURE DETAILS: Antibacterial activity against Enterococcus faecalis 7 by broth microdilution method
Type: functional
PROPERTY LABEL: MIC (µg/mL)

(P) O=CN(O)C[C@@H](CC1CCCC1)C(=O)N1CCC[C@H]1C(=O)NC(=O)C1CCCCC1
(Q) O=CN(O)C[C@@H](CC1CCCC1)C(=O)N1CCC[C@H]1C(=O)NC(=O)NCCc1ccccc1
(R) O=CN(O)C[C@@H](CC1CCCC1)C(=O)N1CCC[C@H]1C(=O)NC(=O)NCCO
Q) Order the items by recorded MIC; the first position goes to the largest value. Form entry: labels listed in requested order.
A) R, P, Q

(1) O=CN(O)C[C@@H](CC1CCCC1)C(=O)N1CCC[C@H]1C(=O)NC(=O)NCCCO
(2) CC(C)C(=O)NC(=O)[C@@H]1CCCN1C(=O)[C@H](CC1CCCC1)CN(O)C=O
Q) Compare reported MIC values for 1 and 2 . Which is lower? Could you answer with the label of the item you picked?
A) 2
(2: 4 µg/mL, 1: 16 µg/mL)
